- System: Human umbilical vein endothelial cells (HUVEC)
- assay-notes: Inhibition of hFGF-2 mediated HUVEC proliferation
- Type: cell-based
- applied-conditions: 72 h
pIC50: −log10 of the molar value.
Rule: pIC50 under 9 gives F, otherwise T.

Use the examples below as a reference point.
1. COc1cc(C)cc2cc(-c3c(CN[C@@H]4CCNC4=O)c(CN4CCN(C(C)=O)CC4)n4ncnc(N)c34)sc12
F
2. COc1cc(C)cc2cc(-c3c(CN4CCNC(=O)C4)c(C(C)(C)O)n4ncnc(N)c34)sc12
T
3. COc1cc(C)cc2cc(-c3c(CN4CCNC(=O)C4)c(CN4CCN(C(C)=O)CC4)n4ncnc(N)c34)sc12
F

Proceed to the following item.
input: Does the reported pIC50 for COc1cc(C)cc2cc(-c3c(CNCC(C)(C)O)c(CN4CCN(C(C)=O)CC4)n4ncnc(N)c34)sc12 fall at or above the 9 mark?
output: F

----------
- target-desc: mTOR (Homo sapiens)
- Construct: human mTOR amino acids from 1360 to 2549; purchased Invitrogen 4753; host or cells: insect cells
- assay-notes: mTOR kinase assay (TR-FRET, for comparative purposes)
- Assay type: biochemical
- applied-conditions: read-out: mTOR % inhibition @ 1 μM, mean inhibition at 1 μM test compound, 40 μM ATP
Structures can show the parent of a compound that is named as a salt.
compounds and their reported inhibition at 1 µM
Answer with a number only, understood to be in %.

Observe how each entry below is paired with its result.
1) CCOCc1c(-c2cc3cc(C)cc(OC)c3s2)c2c(N)ncnn2c1CN1CCN(C(C)=O)CC1 [Example 11, dihydrochloride]
33.2
2) COc1cc(C)cc2cc(-c3c(CNC4CCC4)c(CN4CCNCC4)n4ncnc(N)c34)sc12 [Example 44, trihydrochloride]
13.3
3) COc1cc(C)cc2cc(-c3c(CN4CCCC4)c(CN4CCNCC4)n4ncnc(N)c34)sc12 [Example 45, trihydrochloride]
15.5

input: Value wanted: inhibition at 1 µM (mTOR (Homo sapiens)) of entry COc1cc(C)cc2cc(-c3c(CN4CCNC(=O)C4)c(C(C)(C)O)n4ncnc(N)c34)sc12
output: 18.6

----------
- target-desc: FGFR-3 (Homo sapiens, UniProt P22607)
- Sequence (P22607 397-806): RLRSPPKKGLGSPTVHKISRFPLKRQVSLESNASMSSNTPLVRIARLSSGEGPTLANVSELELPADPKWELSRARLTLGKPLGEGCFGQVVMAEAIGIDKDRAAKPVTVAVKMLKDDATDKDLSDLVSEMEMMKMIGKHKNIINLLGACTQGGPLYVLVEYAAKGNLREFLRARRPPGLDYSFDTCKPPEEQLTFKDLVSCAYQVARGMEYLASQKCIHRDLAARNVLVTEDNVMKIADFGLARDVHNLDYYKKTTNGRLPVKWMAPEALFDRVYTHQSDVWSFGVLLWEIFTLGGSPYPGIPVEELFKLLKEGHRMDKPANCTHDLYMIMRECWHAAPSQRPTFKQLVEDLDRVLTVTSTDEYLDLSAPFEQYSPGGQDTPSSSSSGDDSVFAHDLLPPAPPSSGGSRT
Counter-ions that a name gives are not always drawn.
Mark MET only when IC50 stays strictly below 9 nM. Values equal to the cut-off are NOT MET.

Use the examples below as a reference point.
1) COc1cc(C)cc2cc(-c3c(CNCC4CC4)c(CN4CCNCC4)n4ncnc(N)c34)sc12 [Example 47, trihydrochloride]
MET
2) COc1cc(C)cc2cc(-c3c(CN4CCCC4)c(CN4CCNCC4)n4ncnc(N)c34)sc12 [Example 45, trihydrochloride]
NOT MET

input: Does this compound meet the criterion IC50 < 9 nM? COc1cc(C)cc2cc(-c3c(CN)c(CN4CCNCC4)n4ncnc(N)c34)sc12 [Example 62, trihydrochloride]
output: NOT MET

input: Does this compound meet the criterion IC50 < 9 nM? COc1cc(C)cc2cc(-c3c(CNC(C)=O)c(CN4CCNCC4)n4ncnc(N)c34)sc12 [Example 64, dihydrochloride]
output: MET

input: Does this compound meet the criterion IC50 < 9 nM? COCc1c(-c2cc3cc(C)cc(OC)c3s2)c2c(N)ncnn2c1CN1CCN(C(C)=O)CC1 [Example 16, dihydrochloride]
output: NOT MET

input: Does this compound meet the criterion IC50 < 9 nM? COCc1c(-c2cc3cc(C)cc(OC)c3s2)c2c(N)ncnn2c1CN1CC[C@](C)(N)C1 [Example 14, trihydrochloride]
output: MET

input: Does this compound meet the criterion IC50 < 9 nM? COc1cc(C)cc2cc(-c3c(-c4cnco4)c(CN4CCNCC4)n4ncnc(N)c34)sc12 [Example 61, trihydrochloride]
output: MET

----------
- target-desc: mTOR (Homo sapiens, UniProt P42345)
- Construct: human mTOR amino acids from 1360 to 2549; purchased Invitrogen 4753; host or cells: insect cells
- Sequence (P42345 1360-2549): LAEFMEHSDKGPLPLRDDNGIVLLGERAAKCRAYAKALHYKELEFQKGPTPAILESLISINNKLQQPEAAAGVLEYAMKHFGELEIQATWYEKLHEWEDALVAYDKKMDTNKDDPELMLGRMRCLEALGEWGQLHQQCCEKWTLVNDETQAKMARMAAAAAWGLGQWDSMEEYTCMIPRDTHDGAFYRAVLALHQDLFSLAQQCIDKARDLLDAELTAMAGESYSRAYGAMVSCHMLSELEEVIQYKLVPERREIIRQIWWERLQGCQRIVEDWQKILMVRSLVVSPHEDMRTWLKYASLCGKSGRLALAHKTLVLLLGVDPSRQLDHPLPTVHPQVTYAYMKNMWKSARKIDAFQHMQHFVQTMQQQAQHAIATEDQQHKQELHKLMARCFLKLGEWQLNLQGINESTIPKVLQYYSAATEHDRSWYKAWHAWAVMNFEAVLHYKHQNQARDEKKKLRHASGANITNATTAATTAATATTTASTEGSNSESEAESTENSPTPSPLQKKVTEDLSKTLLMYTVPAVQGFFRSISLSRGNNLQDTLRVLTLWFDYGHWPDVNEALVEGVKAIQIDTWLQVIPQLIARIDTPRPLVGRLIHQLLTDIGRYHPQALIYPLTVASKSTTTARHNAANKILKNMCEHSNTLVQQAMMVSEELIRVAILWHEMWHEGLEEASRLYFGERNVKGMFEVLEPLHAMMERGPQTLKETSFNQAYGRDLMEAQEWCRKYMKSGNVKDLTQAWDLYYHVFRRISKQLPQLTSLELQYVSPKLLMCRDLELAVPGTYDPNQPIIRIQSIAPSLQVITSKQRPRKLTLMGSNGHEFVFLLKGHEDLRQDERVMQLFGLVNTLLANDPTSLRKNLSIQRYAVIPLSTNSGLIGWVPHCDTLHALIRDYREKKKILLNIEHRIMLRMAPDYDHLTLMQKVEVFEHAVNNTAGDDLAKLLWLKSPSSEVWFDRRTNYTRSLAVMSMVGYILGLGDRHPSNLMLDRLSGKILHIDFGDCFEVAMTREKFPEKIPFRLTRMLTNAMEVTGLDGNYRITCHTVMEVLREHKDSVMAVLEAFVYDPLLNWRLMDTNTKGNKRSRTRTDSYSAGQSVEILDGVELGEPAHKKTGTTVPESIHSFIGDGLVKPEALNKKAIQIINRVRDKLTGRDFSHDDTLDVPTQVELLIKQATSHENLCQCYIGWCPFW
- assay-notes: mTOR kinase assay (TR-FRET, for comparative purposes)
- Type: biochemical
- applied-conditions: mean inhibition at 1 μM test compound, 40 μM ATP
experimental-readout: mTOR % inhibition @ 1 μM (%)
Answer with a number only, understood to be in %.

Observe how each entry below is paired with its result.
1. COc1cc(C)cc2cc(-c3c(CNCC(C)(C)O)c(C)n4ncnc(N)c34)sc12 [Example 77]
0.7
2. COc1cc(C)cc2cc(-c3c(CNCC(C)(C)O)c(C)n4ncnc(N)c34)sc12 [Example 78]
5.8
3. COCc1c(-c2cc3cc(C)cc(OC)c3s2)c2c(N)ncnn2c1CN1CCNC(=O)C1.Cl.Cl [Example 2]
7.2

In the following, a different compound is considered.
input: Which mTOR % inhibition @ 1 μM is reported for this compound? COc1cc(C)cc2cc(-c3c(CNCC(C)(C)O)c(Cl)n4ncnc(N)c34)sc12 [Example 82]
output: 7.1

----------
Where a name gives a salt, the structure may show the parent alone.
Observed pIC50 for FGFR-1 (Homo sapiens, UniProt P11362), reported per entry below.
Notebook: values listed as pIC50 are -log10 of the concentration (mol/L).

1. COc1cc(C)cc2cc(-c3c(CNC4CCC4)c(CN4CCNCC4)n4ncnc(N)c34)sc12 [Example 44, trihydrochloride]
8.68
2. COc1cc(C)cc2cc(-c3c(CN4CCCC4)c(CN4CCNCC4)n4ncnc(N)c34)sc12 [Example 45, trihydrochloride]
8.47
3. COc1cc(C)cc2cc(-c3c(COCCO)c(CN4CCNCC4)n4ncnc(N)c34)sc12 [Example 22, dihydrochloride]
9.05
4. COc1cc(C)cc2cc(-c3c(CNC4CC4)c(CN4CCNCC4)n4ncnc(N)c34)sc12 [Example 46, trihydrochloride]
8.49
5. COc1cc(C)cc2cc(-c3c(CNCC4CC4)c(CN4CCNCC4)n4ncnc(N)c34)sc12 [Example 47, trihydrochloride]
8.77

In the following, a different molecule is considered.
input: Which pIC50 is reported for this molecule? CCNCc1c(-c2cc3cc(C)cc(OC)c3s2)c2c(N)ncnn2c1CN1CCNCC1 [Example 38, trihydrochloride]
output: 8.16

----------
compounds and their reported pIC50
- System: Human umbilical vein endothelial cells (HUVEC)
- assay-notes: Inhibition of hFGF-2 mediated HUVEC proliferation
- Format: cell-based
- applied-conditions: 72 h
Notebook: values listed as pIC50 are -log10 of the concentration (mol/L).

Observe how each entry below is paired with its result.
1. COc1cc(C)cc2cc(-c3c(CN4CCNC(=O)C4)c(C)n4ncnc(N)c34)sc12 [Example 76]
8.82
2. COc1cc(C)cc2cc(-c3c(CO)c(C)n4ncnc(N)c34)sc12 [Example 75]
8.82

In the following, a different compound is considered.
input: Which pIC50 is reported for this compound? COc1cc(C)cc2cc(-c3c(CNCC(C)(C)O)c(Cl)n4ncnc(N)c34)sc12 [Example 81]
output: 8.80

----------
- target-desc: FGFR-1 (Homo sapiens, UniProt P11362)
- Sequence (P11362 402-822): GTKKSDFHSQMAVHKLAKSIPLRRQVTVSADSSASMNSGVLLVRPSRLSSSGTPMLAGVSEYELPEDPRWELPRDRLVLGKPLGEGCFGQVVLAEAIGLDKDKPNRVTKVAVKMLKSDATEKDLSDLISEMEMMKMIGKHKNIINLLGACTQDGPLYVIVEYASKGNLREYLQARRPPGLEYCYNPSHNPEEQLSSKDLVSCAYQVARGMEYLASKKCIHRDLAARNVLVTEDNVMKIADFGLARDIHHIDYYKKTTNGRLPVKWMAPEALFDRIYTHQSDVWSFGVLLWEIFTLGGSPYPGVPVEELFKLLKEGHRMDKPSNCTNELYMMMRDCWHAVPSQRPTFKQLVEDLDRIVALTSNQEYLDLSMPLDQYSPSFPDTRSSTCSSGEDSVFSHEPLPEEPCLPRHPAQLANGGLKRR
Counter-ions that a name gives are not always drawn.
experimental-readout: pIC50
Notebook: values listed as pIC50 are -log10 of the concentration (mol/L).

input: Which pIC50 is reported for this compound? COc1cc(C)cc2cc(-c3c(COCCN)c(CN4CCNCC4)n4ncnc(N)c34)sc12 [Example 30, trihydrochloride]
output: 8.55

input: Which pIC50 is reported for this compound? COc1cc(C)cc2cc(-c3c(CNC(C)=O)c(CN4CCNCC4)n4ncnc(N)c34)sc12 [Example 64, dihydrochloride]
output: 9.00

input: Which pIC50 is reported for this compound? CCOCc1c(-c2cc3cc(C)cc(OC)c3s2)c2c(N)ncnn2c1CN1CCN(C(C)=O)CC1 [Example 11, dihydrochloride]
output: 8.19

input: Which pIC50 is reported for this compound? COc1cc(C)cc2cc(-c3c(CN)c(CN4CCNCC4)n4ncnc(N)c34)sc12 [Example 62, trihydrochloride]
output: 8.51

input: Which pIC50 is reported for this compound? COc1cc(C)cc2cc(-c3c(CNCCO)c(CN4CCNCC4)n4ncnc(N)c34)sc12 [Example 39, trihydrochloride]
output: 8.96
